// data source = patent US20240400708A1

molecular target: feline FcRn complex (FcRn-α subunit and β-microglobulin), biotin labeled (feline); assay: SPR, pH 7.4
# note: exactly 9 nM is not below, so it is Not fulfilled; use Fulfilled for Kd strictly under it

Before answering, review these 6 worked examples.
feline IgG1a S252Y/S434R/Q311W (antibody, part only; not given: Variable domains, not shown: another chain or arm of the molecule) constant: ASTTAPSVFPLAPSCGTTSGATVALACLVLGYFPEPVTVSWNSGALTSGVHTFPAVLQASGLYSLSSMVTVPSSRWLSDTFTCNVAHPPSNTKVDKTVRKTDHPPGPKPCDCPKCPPPEMLGGPSIFIFPPKPKDTLYISRTPEVTCLVVDLGPDDSDVQITWFVDNTQVYTAKTSPREEQFNSTYRVVSVLPILHWDWLKGKEFKCKVNSKSLPSPIERTISKAKGQPHEPQVYVLPPAQEELSRNKVSVTCLIKSFHPPDIAVEWEITGQPEPENNYRTTPPQLDSDGTYFVYSKLSVDRSHWQRGNTYTCSVSHEALHRHHTQKSLTQSPGK
Fulfilled
feline IgG1a S252Y/D312P/S434Y (antibody, part only; not given: Variable domains, not shown: another chain or arm of the molecule; small tags and cut ends) constant: ASTTAPSVFPLAPSCGTTSGATVALACLVLGYFPEPVTVSWNSGALTSGVHTFPAVLQASGLYSLSSMVTVPSSRWLSDTFTCNVAHPPSNTKVDKTVRKTDHPPGPKPCDCPKCPPPEMLGGPSIFIFPPKPKDTLYISRTPEVTCLVVDLGPDDSDVQITWFVDNTQVYTAKTSPREEQFNSTYRVVSVLPILHQPWLKGKEFKCKVNSKSLPSPIERTISKAKGQPHEPQVYVLPPAQEELSRNKVSVTCLIKSFHPPDIAVEWEITGQPEPENNYRTTPPQLDSDGTYFVYSKLSVDRSHWQRGNTYTCSVSHEALHYHHTQKSLTQSPGK
Fulfilled
feline IgG1a S252H/S428M/S434P (antibody, part only; not given: Variable domains, not shown: another chain or arm of the molecule) constant: ASTTAPSVFPLAPSCGTTSGATVALACLVLGYFPEPVTVSWNSGALTSGVHTFPAVLQASGLYSLSSMVTVPSSRWLSDTFTCNVAHPPSNTKVDKTVRKTDHPPGPKPCDCPKCPPPEMLGGPSIFIFPPKPKDTLHISRTPEVTCLVVDLGPDDSDVQITWFVDNTQVYTAKTSPREEQFNSTYRVVSVLPILHQDWLKGKEFKCKVNSKSLPSPIERTISKAKGQPHEPQVYVLPPAQEELSRNKVSVTCLIKSFHPPDIAVEWEITGQPEPENNYRTTPPQLDSDGTYFVYSKLSVDRSHWQRGNTYTCSVMHEALHPHHTQKSLTQSPGK
Not fulfilled
feline IgG1a D312P/S434Y (antibody, part only; not given: Variable domains, not shown: another chain or arm of the molecule) constant: ASTTAPSVFPLAPSCGTTSGATVALACLVLGYFPEPVTVSWNSGALTSGVHTFPAVLQASGLYSLSSMVTVPSSRWLSDTFTCNVAHPPSNTKVDKTVRKTDHPPGPKPCDCPKCPPPEMLGGPSIFIFPPKPKDTLSISRTPEVTCLVVDLGPDDSDVQITWFVDNTQVYTAKTSPREEQFNSTYRVVSVLPILHQPWLKGKEFKCKVNSKSLPSPIERTISKAKGQPHEPQVYVLPPAQEELSRNKVSVTCLIKSFHPPDIAVEWEITGQPEPENNYRTTPPQLDSDGTYFVYSKLSVDRSHWQRGNTYTCSVSHEALHYHHTQKSLTQSPGK
Not fulfilled
feline IgG1a D312K (antibody, part only; not given: Variable domains, not shown: another chain or arm of the molecule) constant: ASTTAPSVFPLAPSCGTTSGATVALACLVLGYFPEPVTVSWNSGALTSGVHTFPAVLQASGLYSLSSMVTVPSSRWLSDTFTCNVAHPPSNTKVDKTVRKTDHPPGPKPCDCPKCPPPEMLGGPSIFIFPPKPKDTLSISRTPEVTCLVVDLGPDDSDVQITWFVDNTQVYTAKTSPREEQFNSTYRVVSVLPILHQKWLKGKEFKCKVNSKSLPSPIERTISKAKGQPHEPQVYVLPPAQEELSRNKVSVTCLIKSFHPPDIAVEWEITGQPEPENNYRTTPPQLDSDGTYFVYSKLSVDRSHWQRGNTYTCSVSHEALHSHHTQKSLTQSPGK
Not fulfilled
feline IgG1a S434Y (antibody, part only; not given: Variable domains, not shown: another chain or arm of the molecule) constant: ASTTAPSVFPLAPSCGTTSGATVALACLVLGYFPEPVTVSWNSGALTSGVHTFPAVLQASGLYSLSSMVTVPSSRWLSDTFTCNVAHPPSNTKVDKTVRKTDHPPGPKPCDCPKCPPPEMLGGPSIFIFPPKPKDTLSISRTPEVTCLVVDLGPDDSDVQITWFVDNTQVYTAKTSPREEQFNSTYRVVSVLPILHQDWLKGKEFKCKVNSKSLPSPIERTISKAKGQPHEPQVYVLPPAQEELSRNKVSVTCLIKSFHPPDIAVEWEITGQPEPENNYRTTPPQLDSDGTYFVYSKLSVDRSHWQRGNTYTCSVSHEALHYHHTQKSLTQSPGK
Not fulfilled

API: query returns whether the binder falls strictly under 9 nM in Kd. Query: feline IgG1a S252H/S434W (antibody, part only; not given: Variable domains, not shown: another chain or arm of the molecule) constant: ASTTAPSVFPLAPSCGTTSGATVALACLVLGYFPEPVTVSWNSGALTSGVHTFPAVLQASGLYSLSSMVTVPSSRWLSDTFTCNVAHPPSNTKVDKTVRKTDHPPGPKPCDCPKCPPPEMLGGPSIFIFPPKPKDTLHISRTPEVTCLVVDLGPDDSDVQITWFVDNTQVYTAKTSPREEQFNSTYRVVSVLPILHQDWLKGKEFKCKVNSKSLPSPIERTISKAKGQPHEPQVYVLPPAQEELSRNKVSVTCLIKSFHPPDIAVEWEITGQPEPENNYRTTPPQLDSDGTYFVYSKLSVDRSHWQRGNTYTCSVSHEALHWHHTQKSLTQSPGK Not fulfilled
